Values compiled from PubChem BioAssay AID588795.

Biological target: Flap endonuclease 1 (Homo sapiens)
Test: qHTS Assay for the Inhibitors of Human Flap endonuclease 1 (FEN1). Also: nearly all actives have a fitted effect of over 65% in size.
Settings: Recombinant FEN1 flap cleavage, fluorescence, 15 min; series mostly up to 114 µM
Screen size: about 390,000 compounds; about 1,400 (0.36%) were called active. About 2% were inconclusive and are not listed. Calls follow the shape of the dose curve; as a rule, active = well fitted inhibition curve with a large enough effect; inconclusive = small, poorly fitted or top-dose-only effect; inactive = no such curve, though single readings can be large or run the other way. Shown is part of a subset that was picked to be rich in actives.
Answer with one of the outcomes active, inactive

// known answers, use as guide
CO[C@H]1[C@@H](O)[C@@H](C)O[C@H](O[C@H]2[C@H](Oc3cccc4c(O)c5c(=O)oc6ccc(C)c7c(=O)oc(c34)c5c67)O[C@H](C)[C@H](O)[C@@H]2O)[C@@H]1O | active
COC1C(O)C(C)OC(OC2CCC3(C=O)C(CCC4C3CCC3(C)C(C5=CC(=O)OC5)CCC43O)C2)C1O (configuration not stated) | inactive

Per the records of this test, what outcome belongs to CC(=O)OC1C2(CC3N4C(=O)C5(CO)SSC4(CC31O)C(=O)N5C)OC(C)C(C)(C)C2=O (configuration not stated) ?
inactive
